target: Casein kinase II subunit alpha' (Homo sapiens); experiment: Inhibition of GST-tagged full-length purified human CK2a2 using RRRDDDSDDD substrate incubated for 120 mins in presence of [33P]ATP by scintillation counting based biochemical assay
pIC50: −log10 of the molar value.
Measured pIC50, listed per entry for reference.

Below, 2 molecules whose answers are already recorded.
Please give the documented pIC50 of O=c1cc(-c2ccc3[nH]nnc3c2)[nH]c2c(-c3ccc(Cl)cc3)cnn12
≥ 5.00

Please report the measured pIC50 for O=c1cc(-c2ccc(Cl)cc2)[nH]c2c(-c3ccccn3)c(O)nn12
≤ 5.00

Continuing:
Answer with the recorded pIC50 of Cc1nn2c(=O)cc(-c3ccc(C(N)=O)cc3)[nH]c2c1Cc1ccc(Cl)cc1 only.
≤ 5.00

Look up and state reported pIC50 for COc1ccccc1-c1cc(=O)n2ncc(-c3ccccn3)c2[nH]1
≥ 5.00

###

target: Casein kinase II subunit alpha' (Homo sapiens, UniProt P19784); assay: Inhibition of GST-tagged full-length purified human CK2a2 using RRRDDDSDDD substrate incubated for 120 mins in presence of [33P]ATP by scintillation counting based biochemical assay
Sequence (P19784 whole entry): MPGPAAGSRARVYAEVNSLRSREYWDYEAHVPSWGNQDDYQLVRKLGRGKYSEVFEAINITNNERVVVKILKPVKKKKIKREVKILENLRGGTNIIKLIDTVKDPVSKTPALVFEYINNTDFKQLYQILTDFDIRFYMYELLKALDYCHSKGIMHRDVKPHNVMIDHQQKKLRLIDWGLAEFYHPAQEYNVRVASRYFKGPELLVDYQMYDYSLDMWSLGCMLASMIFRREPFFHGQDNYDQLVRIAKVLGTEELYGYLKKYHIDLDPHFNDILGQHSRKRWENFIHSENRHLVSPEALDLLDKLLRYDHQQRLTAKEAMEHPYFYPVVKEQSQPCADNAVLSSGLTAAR
pIC50: −log10 of the molar value.
VALUE KIND: pIC50

Reference set, count: 2
Give the value of pIC50 reported for the following: COc1ccc2c(c1)CCc1c-2[nH]c2c(-c3ccccn3)cnn2c1=O
≥ 5.00

State its pIC50 for this compound: O=c1cc(-c2ccc3occc3c2)[nH]c2c(-c3ccccc3)c(O)nn12
≥ 5.00

Next:
Fill in reported pIC50 for this entry: O=c1cc(-c2ccc3c(c2)OCO3)[nH]c2c(-c3cccnc3)c(O)nn12
≥ 5.00

Could you please provide reported pIC50 for CCCc1c(C)nn2c(=O)cc(-c3ccc(OC)cc3)[nH]c12 ? Thanks!
≤ 5.00

Return pIC50 (reported value) for this compound: O=c1cc(-c2ccc(F)cc2)[nH]c2c(-c3ccccn3)c(O)nn12
≤ 5.00

Dear colleague, please send me the reported pIC50 for Nc1nn2c(=O)cc(-c3ccc(Cl)cc3)[nH]c2c1-c1ccccn1 when you can.
≥ 5.00

###

molecular target: Casein kinase II subunit alpha' (Homo sapiens); assay: Inhibition of GST-tagged full-length purified human CK2a2 using RRRDDDSDDD substrate incubated for 120 mins in presence of [33P]ATP by scintillation counting based biochemical assay
Below: a set of entries, each annotated with reported IC50.

# lookup: Casein kinase II subunit alpha' (Homo sapiens) IC50, key = N#Cc1cnn2c(=O)cc(-c3ccc4c(c3)OCCO4)[nH]c12
≤ 10 µM

Give IC50 for this entry on Casein kinase II subunit alpha' (Homo sapiens): CCCNC(=O)c1c(N)nn2c(=O)cc(-c3ccc4[nH]ncc4c3)[nH]c12
≤ 10 µM

The record that follows has no IC50 shown yet.
Lab note: record IC50 of O=c1cc(-c2ccc3c(c2)CCO3)[nH]c2c(-c3cccnc3)cnn12 tested on Casein kinase II subunit alpha' (Homo sapiens).
≤ 10 µM

###

Overview of reported pIC50 across a group of molecules:
biological target: Casein kinase II subunit alpha' (Homo sapiens); experiment: Inhibition of GST-tagged full-length purified human CK2a2 using RRRDDDSDDD substrate incubated for 120 mins in presence of [33P]ATP by scintillation counting based biochemical assay
pIC50: −log10 of the molar value.

Hello, please tell me recorded pIC50 for this one: COc1c(-c2cc(=O)n3nc(N)c(-c4ccccn4)c3[nH]2)ccc2c1OCO2
≥ 5.00

Quote pIC50 reported for Cc1nn2c(=O)cc(-c3ccc4c(c3)OCCO4)[nH]c2c1-c1ccc(F)cc1 please.
≥ 5.00

Item COc1cccc(-c2cnn3c(=O)cc(-c4ccc5c(c4)OCCO5)[nH]c23)c1 : provide pIC50
≥ 5.00

Give the reported pIC50 for this molecule. CCCNC(=O)c1c(O)nn2c(=O)cc(-c3ccc4c(c3)OCO4)[nH]c12
≥ 5.00

Give the value of pIC50 reported for the following: CCCNC(=O)c1c(N)nn2c(=O)cc(-c3ccc4[nH]nc(C)c4c3)[nH]c12
≥ 5.00

Supply measured pIC50 of Nc1nn2c(=O)cc(-c3ccc4c(c3)OCCO4)[nH]c2c1-c1ccccc1 in your reply.
≥ 5.00

Write down pIC50 measured for item CCCNC(=O)c1c(N)nn2c(=O)cc(-c3ccc(Cl)cc3)[nH]c12
≥ 5.00

Provide only the value of recorded pIC50 for Cc1nn2c(=O)cc(-c3cccnc3)[nH]c2c1-c1ccc(F)cc1
≥ 5.00

Give reported pIC50 value for Cc1nn2c(=O)cc(-c3ccc4c(c3)OCCO4)[nH]c2c1-c1cccnc1
≥ 5.00

Dear colleague, please send me the reported pIC50 for COc1cc2[nH]nnc2cc1-c1cc(=O)n2nc(N)c(-c3ccccn3)c2[nH]1 when you can.
≤ 5.00

Fill in reported pIC50 for this entry: O=c1cc(-c2ccc3occc3c2)[nH]c2c(-c3ccccc3)cnn12
≥ 5.00

Please report the measured pIC50 for Cc1nn2c(=O)cc(-c3ccc4c(c3)OCO4)[nH]c2c1-c1ccccc1
≥ 5.00

Give me measured pIC50, please, for this molecule: COc1ccc(-c2cc(=O)n3nc(C)c(Cc4ccccc4)c3[nH]2)cc1OC
≤ 5.00

Supply reported pIC50 belonging to this molecule: CCCNC(=O)c1c(N)nn2c(=O)cc(-c3ccc4[nH]nnc4c3)[nH]c12
≥ 5.00

State its pIC50: COc1c(-c2cc(=O)n3ncc(-c4ccccn4)c3[nH]2)ccc2[nH]nnc12
≥ 5.00

State its pIC50 for this molecule: O=c1cc(-c2ccc(Cl)cc2)[nH]c2c(-c3cccnc3)c(O)nn12
≤ 5.00
